- experiment-notes: inhibitors of HIV fusion peptide binding, primary screen, biochemical, uHTS, fluorescence dequenching (AID 1986)
- recorded-conditions: cell-free peptide binding, 30 min, at 20 µM, active compounds read high
Screen size: about 290,000 compounds; about 890 (0.31%) were called active. The list comes from a sample in which actives are over-represented; it also holds close analogues and randomly drawn compounds.
value-kind: inhibition

{"columns": ["compound", "result"],
 "data": [
  ["N#Cc1cc(C(=O)c2ccccc2O)cn(-c2nccs2)c1=O", "52.8% (active)"],
  ["CCOCCCNc1nc2c(C)cccn2c(=O)c1/C=C1\\SC(=S)N(CC(C)C)C1=O", "58.9% (active)"],
  ["CC(C(=O)N1CCN(C(=O)c2ccco2)CC1)n1sc2ccccc2c1=O (configuration not stated)", "1.6% (inactive)"],
  ["O=c1cc2oc3cc(O)c(O)cc3c(-c3ccccc3O)c-2cc1O", "148% (inactive)"],
  ["O=C(c1cc(-c2ccco2)nn1-c1cccc(Cl)c1)N1CCCCC1", "15% (inactive)"],
  ["Cc1cccc(NS(=O)(=O)c2ccc3c(c2)oc(=O)n3C)c1C", "2.3% (inactive)"],
  ["COc1cc(OC)c(-c2c3cc(O)c(=O)cc-3oc3cc(O)c(O)cc23)cc1OC", "82.9% (active)"],
  ["COc1ccc(C)cc1S(=O)(=O)NC1CCCCCC1", "-1.6% (inactive)"],
  ["O=C1/C(=C/C=C/c2ccco2)SC(=S)N1c1ccc(O)cc1", "55.7% (active)"],
  ["N#Cc1cc(C(=O)c2cc(F)ccc2O)cn(-c2nccs2)c1=O", "151% (inactive)"],
  ["Cc1ccc(N2C(=O)/C(=C\\c3ccco3)SC2=S)cc1", "71.5% (inactive)"],
  ["CCOc1ccccc1-c1c2cc(O)c(=O)cc-2oc2cc(O)c(O)cc12", "118% (active)"],
  ["O=C1/C(=C\\c2ccco2)SC(=S)N1c1ccc(O)cc1", "57.7% (inactive)"],
  ["COCCCn1c(=O)/c(=C\\c2cccc(OC)c2OC)s/c1=C(/C#N)C(=O)Nc1ccc(C(=O)O)cc1", "54.1% (inactive)"],
  ["CCC(C)N1C(=O)/C(=C/c2c(NCCCOC(C)C)nc3c(C)cccn3c2=O)SC1=S (configuration not stated)", "75.6% (active)"],
  ["Cc1ccccc1-c1cc(=O)c2c(O)cccc2o1", "-1.7% (inactive)"],
  ["Cc1cccn2c(=O)c(/C=C3\\SC(=S)NC3=O)c(NCCCN3CCOCC3)nc12", "75.8% (inactive)"],
  ["Cc1nonc1OCCNC(=O)C12CC3CC(CC(C3)C1)C2", "0.6% (inactive)"],
  ["CCCN1C(=O)/C(=C/c2c(NCCCOCC)nc3c(C)cccn3c2=O)SC1=S", "8.4% (inactive)"],
  ["O=C(O)c1cc(-c2ccco2)nn1-c1cccc(Cl)c1", "74.3% (active)"],
  ["CCN(CC)C(=O)CC(c1ccc(F)cc1)c1ccc(OC)cc1 (configuration not stated)", "2% (inactive)"],
  ["C/C(=N\\NC(=O)CN(c1ccc(Oc2ccccc2)cc1)S(C)(=O)=O)C(C)(C)C", "-0.5% (inactive)"]
]}
